Where do the numbers come from? From paper PMC9414302.

tested-on: COX-1 (Ovis aries)
Construct: purchased Cayman Chemicals 700100
Sequence (P05979 25-600): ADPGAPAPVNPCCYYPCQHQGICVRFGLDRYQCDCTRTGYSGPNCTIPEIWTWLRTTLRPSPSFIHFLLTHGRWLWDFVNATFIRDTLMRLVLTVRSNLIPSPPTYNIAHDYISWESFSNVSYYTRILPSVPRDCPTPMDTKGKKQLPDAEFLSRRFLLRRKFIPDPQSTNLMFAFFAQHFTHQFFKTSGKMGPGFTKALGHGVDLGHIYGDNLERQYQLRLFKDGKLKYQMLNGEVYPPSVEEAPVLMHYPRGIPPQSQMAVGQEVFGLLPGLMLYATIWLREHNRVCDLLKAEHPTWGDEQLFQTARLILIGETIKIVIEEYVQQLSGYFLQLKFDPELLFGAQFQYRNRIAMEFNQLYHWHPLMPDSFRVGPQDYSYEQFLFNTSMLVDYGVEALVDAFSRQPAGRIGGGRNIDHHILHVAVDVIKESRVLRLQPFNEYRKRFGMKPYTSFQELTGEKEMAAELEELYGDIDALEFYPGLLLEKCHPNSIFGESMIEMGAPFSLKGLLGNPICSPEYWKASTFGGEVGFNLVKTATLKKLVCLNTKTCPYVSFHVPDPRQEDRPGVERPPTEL
assay-summary: COX inhibitor screening fluorometric assay (COX-1)
Format: biochemical
test-context: fluorometric assay (resorufin, ex 535 nm / em 590 nm); mean of three determinations ± SD; metabolites tested at 25, 50, 100 and 150 µM; SC-560 at 2, 4, 8 and 10 nM
readout-kind: IC50

Worked set:
compound	IC50
O=C(O)[C@H]1O[C@@H](Oc2c(-c3ccc(O)c(O)c3)oc3cc(O)cc(O)c3c2=O)[C@H](O)[C@@H](O)[C@@H]1O [Quercetin glucuronide, quercetin glucuronide]	571 µM
COc1cc(-c2oc3cc(O)cc(O)c3c(=O)c2OC2OC(C(=O)O)C(O)C(O)C2O)ccc1O (stereo not drawn) [Isorhamnetin glucuronide, isorhamnetin glucuronide]	94.7 µM

Asked: For the compound O=C(O)C1OC(Oc2c(-c3ccc(O)cc3)oc3cc(O)cc(O)c3c2=O)C(O)C(O)C1O (stereo not drawn) [Kaempferol glucuronide, kaempferol glucuronide] , what IC50 is on record?
Given back: 228 µM
